Each entry below carries its reported growth.
# Tested on: A498 renal
# run.description: NCI-60 one-dose screen, 48 h (100 = growth as untreated, 0 = no growth, -100 = all killed)
# test.conditions: 10 µM unless noted
# Method: Growth inhibition of the A498 human tumor cell line is measured as a screen for anti-cancer activity. Cells are grown in 96 well plates and exposed to the test compound for 48 hours. Compounds are tested at a single concentration, which is 10^-5 M for most compounds. The reported endpoint is percent growth (GI% or GIPRCNT), where numbers from 0 - 100% represent growth inhibition, and numbers from -100% - 0 represent cell death. For example, a value of 40 represents 60% growth inhibition. […]
The panel holds about 83,000 compounds, 20% with a hit somewhere; the sample as a whole holds those more often.
value.kind: growth (%)

| molecule | tested.on | value.kind | test.result |
| --- | --- | --- | --- |
| C=C(c1ccc(N(C)C)cc1)c1ccc(N(C)C)cc1 | A498 renal | growth | 78.8 |
| C=COC(=O)C(C)(C)C | A498 renal | growth | 95.1 |
| CC(C)(C)NCCC(O)c1cc(C(F)(F)F)nc2c(C(F)(F)F)cccc12 (stereo unspecified) | A498 renal | growth | 33.3 |
| O=Cc1ccc(F)cc1 | A498 renal | growth | 103 |
| C/C(=N\O)c1ccccn1 | A498 renal | growth | 108 |
| C=CCNC(=S)N/C=C(/C(=O)c1ccccc1)c1ccccc1 | A498 renal | growth | 98 |
| CCCCCC#CC(=O)O | A498 renal | growth | 105 |
| CCOC(=O)c1ccc(NC(=O)Nc2nccs2)cc1 | A498 renal | growth | 7.68 |
| NNC(=O)N/N=C1\C(=O)N(c2nccs2)C(=O)C(=O)C1c1nc2ccccc2s1 (stereo unspecified) | A498 renal | growth | 98.3 |
| O=Cc1ccc(O)c(O)c1 | A498 renal | growth | 88.4 |
| ClCC(Cl)C1CCC(Cl)C(Cl)C1 (stereo unspecified) | A498 renal | growth | 85.5 |
| Nc1cccc2cccc(O)c12 | A498 renal | growth | 97.9 |
| Cc1cc(C(=O)c2ccccc2)cc(C)c1O | A498 renal | growth | 98 |
| CCCNS(=O)(=O)c1ccc(Cl)cc1 | A498 renal | growth | 98.9 |
| COC1=C(OC)C(=O)C(SC/C=C(\C)CCCC(C)CCCC(C)CCCC(C)C)=CC1=O (stereo unspecified) | A498 renal | growth | 16.8 |
| CC(C)N1CC(=O)N2CSCC2C1=O (stereo unspecified) | A498 renal | growth | 123 |
| NNc1ncnc2nc[nH]c12 | A498 renal | growth | 55.1 |
| NC(=O)NCCO | A498 renal | growth | 77.1 |
| O=c1n(CC2CO2)c(=O)n(CC2CO2)n1CC1CO1 (stereo unspecified) | A498 renal | growth | 85.2 |
| O=C(O)CSCC(=O)Nc1cc(C(F)(F)F)ccc1Cl | A498 renal | growth | 139 |
| CCCC(=O)CC(=O)c1ccccc1 | A498 renal | growth | 70.4 |
